The reported measurements were obtained from patent US8003649B2.

# EXPERIMENTAL_SYSTEM: Androgen Receptor (AR) (Homo sapiens, UniProt P10275, T878A)
# Construct: cell based immuno-fluorescence assay using the LNCaP prostate epithelial cell line; endogenous in cells; host or cells: LNCaP clone FGC (ATCC CRL-1740)
# Sequence (P10275 1-920 T878A): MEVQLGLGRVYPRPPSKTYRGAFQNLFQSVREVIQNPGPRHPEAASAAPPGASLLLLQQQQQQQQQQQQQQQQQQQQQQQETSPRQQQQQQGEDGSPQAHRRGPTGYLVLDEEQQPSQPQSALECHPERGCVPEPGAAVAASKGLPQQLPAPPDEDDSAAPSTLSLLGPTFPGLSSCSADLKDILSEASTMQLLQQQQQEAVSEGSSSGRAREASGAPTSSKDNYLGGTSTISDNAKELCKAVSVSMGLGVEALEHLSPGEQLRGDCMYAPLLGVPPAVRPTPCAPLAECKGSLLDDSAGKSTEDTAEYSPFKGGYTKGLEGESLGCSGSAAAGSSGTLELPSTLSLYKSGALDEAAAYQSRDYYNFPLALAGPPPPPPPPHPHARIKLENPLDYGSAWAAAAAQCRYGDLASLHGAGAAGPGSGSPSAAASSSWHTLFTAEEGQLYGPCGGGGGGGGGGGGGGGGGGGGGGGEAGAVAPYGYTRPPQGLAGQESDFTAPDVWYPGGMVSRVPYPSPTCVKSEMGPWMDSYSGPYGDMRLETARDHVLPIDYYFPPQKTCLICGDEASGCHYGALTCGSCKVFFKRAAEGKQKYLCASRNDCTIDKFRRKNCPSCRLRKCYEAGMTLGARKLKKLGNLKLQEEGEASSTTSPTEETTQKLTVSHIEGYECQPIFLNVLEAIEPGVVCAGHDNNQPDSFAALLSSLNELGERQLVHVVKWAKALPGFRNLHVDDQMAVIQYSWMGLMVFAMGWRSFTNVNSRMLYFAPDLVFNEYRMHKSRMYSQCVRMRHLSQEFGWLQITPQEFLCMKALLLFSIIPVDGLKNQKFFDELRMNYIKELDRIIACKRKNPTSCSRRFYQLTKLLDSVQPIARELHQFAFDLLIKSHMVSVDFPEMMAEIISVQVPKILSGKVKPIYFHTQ
# TEST: LNCaP Androgen Receptor Down-regulation Cell Assay (immunofluorescence end point)
# Type: cell-based
# PARTICULARS: LNCaP prostate carcinoma cells, compound incubation 20-22 hours, 50% reduction of the AR signal; read-out: Androgen Receptor Down-regulation Assay (a) IC50/μM
# Procedure: The ability of compounds to reduce Androgen Receptor (AR) numbers was assessed in a cell based immuno-fluorescence assay using the LNCaP prostate epithelial cell line. a) LNCaP Androgen Receptor Down-regulation Cell Assay […] Immunostaining was performed at room temperature. […] Then 50 μl of PBST was added to each well and plates were covered with a black plate seal and stored at 4° C. before being read. Plates were read within six hours of completing the immunostaining. […]
Kindly state DC50 for each of the entries shown.
Report the value in µM with no unit label.

input: // returns reported DC50 for input `CN(CCS(C)(=O)=O)C(=O)c1ccc(C2CCN(c3ccc4nnc(C(F)(F)F)n4n3)CC2)cc1`
output: 2.2

input: // lookup DC50 for `FC(F)(F)c1nnc2ccc(N3CCN(Cc4ccc(Cl)cc4)CC3)nn12`
output: 0.69

input: Which DC50 reading was recorded for the compound `FC(F)(F)c1nnc2ccc(N3CCN(Cc4ccc5c(c4)CCO5)CC3)nn12` ?
output: 1.8

input: Sample `O=C(c1cccc(OC2CCN(c3ccc4nnc(C(F)(F)F)n4n3)CC2)c1)N1CC[C@H](O)C1` — what was its DC50?
output: 7.1
